I'd appreciate it if you could supply log10 of TGI values for the items below.
- System: NCI-H23 lung
- assay.comment: NCI tumour cell line growth inhibition, 48 h
Quick note: numbers are log10 of TGI, with µM as the unit.

Go through the items and report each one's log10 of TGI.
1. C=CC[C@H](O)[C@@](NC(=O)OCc1ccccc1)(Sc1ccc(C)cc1)C(F)(F)F
2. CCOC(=O)C(CC(C)C)NC(=O)C(N)Cc1ccc(N(CCCl)CCCl)cc1 (centres undefined)

1. 1.85
2. 0.85

* * *

- Test system: SK-MEL-5 melanoma
- assay.comment: NCI tumour cell line growth inhibition, 48 h
parameter.measured: GI50

Go through the items and report each one's GI50.
1. N#CC1(C#N)C2C=CC(C3CC=CC32)C1(C#N)C#N (stereo not drawn)
2. COc1ccc(-c2nc(Nc3ccc(F)cc3)nc(Nc3ccc4c(c3)nc(C)n4Cc3ccccc3)n2)cc1
3. O=C(NC(=S)Nc1ccc(-c2nc3ccccc3[nH]2)cc1)c1ccc2ccccc2c1

1: 8.61 µM; 2: 3.2 µM; 3: 3.63 µM

* * *

- System: HOP-92 NSCLC
- assay.comment: NCI tumour cell line growth inhibition, 48 h
parameter.measured: TGI

INSERT INTO assay_data (compound, parameter_measured, measured) VALUES
  ('COc1cc(CN(C)N2C(=O)c3cccc4cc([N+](=O)[O-])cc(c34)C2=O)cc(OC)c1OC', 'TGI', '> 100 µM'),
  ('Nc1nc(N)c2cc(Sc3ccc(Cl)cc3)ccc2n1', 'TGI', '7 µM'),
  ('Cc1ccc(C)c(N2C(=O)C(=O)C(c3nc4ccccc4s3)C(=O)C2=O)c1', 'TGI', '> 100 µM');

Go through the items and report each one's TGI.
1. Cc1ccc(S(=O)(=O)NN=C2C(C)CC(C(C)(C)C)CC2C)cc1 (stereo not given)
2. CNC(=O)N(CCCC(NC(C)=O)C(=O)NCc1ccccc1)Cc1ccccc1 (stereo not given)
3. O=c1n(Cc2ccccc2)c2ccccc2n1CC1CS1 (stereo not given)

30.1 µM
> 100 µM
> 100 µM

Go through the items and report each one's TGI.
1. CSc1nc(SC)c2c(C)cn(Cc3ccccc3)c2n1
2. COc1ccc2c(c1)C(=O)/C(=C/c1ccccc1)C2
3. CC(C)c1ccc2c(c1)CCC1C(C)(CN)CCCC21C (stereo not given)
4. CNC(=O)Nn1c(SC)nc2ccccc21
5. COc1cc2c(OC)c3cc(C)oc(=O)c3c(O)c2c(O)c1-c1c(OC)cc2c(OC)c3cc(C)oc(=O)c3c(O)c2c1O
6. COc1ccc(-c2c(C(C)=O)c(C)n(C3OC(COC(C)=O)C(OC(C)=O)C(OC(C)=O)C3OC(C)=O)c(=S)c2C#N)cc1 (stereo not given)

["> 100 µM", "> 100 µM", "2.97 µM", "> 100 µM", "55.9 µM", "84.6 µM"]

Go through the items and report each one's TGI.
1. CNc1cccc(-c2cc(=O)c3cc4c(cc3[nH]2)OCO4)c1
2. CCCCN(CCCC)C(=O)C(=O)C(C(=O)C(=O)OC)c1nc2ccccc2o1 (stereo not given)
3. COc1ccc(-c2nnc3c4ccccc4sn23)cc1

["> 100 µM", "> 100 µM", "> 100 µM"]
